Tested on: prostatic - PC-3
assayDetails: Antiproliferative assay (MTT) PC-3
conditionNotes: PC-3, 25 µM
Criterion: Average of Relative viability of cells (%) strictly less than 50%. Met: 1.0. Not met: 0.0.

# compound, assignedCategory
data = [
    ("Cc1nc(SCC(=O)Nc2nc(-c3ccc(Cl)cc3)cs2)sc1C(=O)/C=C/c1ccccc1 [Compound 10f]", 1.0),
    ("Cc1nc(SCC(=O)Nc2nccs2)sc1C(=O)/C=C/c1ccc(F)cc1 [Compound 13c]", 0.0),
    ("COc1ccc(/C=C/C(=O)c2sc(SCC(=O)Nc3nc(-c4ccc(C)cc4)cs3)nc2C)cc1 [Compound 10o]", 1.0),
    ("Cc1ccc(/C=C/C(=O)c2sc(SCC(=O)Nc3nccs3)nc2C)cc1 [Compound 13d]", 1.0),
    ("Cc1ccc(/C=C/C(=O)c2sc(SCC(=O)Nc3nc(-c4ccccc4)cs3)nc2C)cc1 [Compound 10d]", 1.0),
]

Exam item: Quick check: does Cc1ccc(-c2csc(NC(=O)CSc3nc(C)c(C(=O)/C=C/c4ccc(F)cc4)s3)n2)cc1 [Compound 10m] have Average of Relative viability of cells (%) under 50%?
Marked response: 0.0

Exam item: Quick check: does Cc1nc(SCC(=O)Nc2nccs2)sc1C(=O)/C=C/c1ccc(Cl)cc1 [Compound 13b] have Average of Relative viability of cells (%) under 50%?
Marked response: 1.0

Exam item: Quick check: does Cc1nc(SCC(=O)Nc2nc(-c3ccc(Cl)cc3)cs2)sc1C(=O)/C=C/c1ccc(F)cc1 [Compound 10h] have Average of Relative viability of cells (%) under 50%?
Marked response: 0.0

* * *

Tested on: tubulin
assayDetails: Tubulin polymerization inhibition assay (Cytoskeleton kit)
conditionNotes: conc 10 (unit not given), control = 120, codes 522-537 run
measure: Tub. enzyme inhibition assay K. Activity
Give your answer as a number; write no unit.

As a guide, the following entries are already answered.
# compound, Tub. enzyme inhibition assay K. Activity
measured = [
    ("COc1ccc(/C=C/C(=O)c2sc(SCC(=O)Nc3nc(-c4ccccc4)cs3)nc2C)cc1 [Compound 10e]", 64.791),
    ("Cc1nc(SCC(=O)Nc2nc(-c3ccc(Cl)cc3)cs2)sc1C(=O)/C=C/c1ccccc1 [Compound 10f]", 49.376),
    ("COc1ccc(/C=C/C(=O)c2sc(SCC(=O)Nc3nc(-c4ccc(Cl)cc4)cs3)nc2C)cc1 [Compound 10j]", 65.175),
    ("Cc1ccc(/C=C/C(=O)c2sc(SCC(=O)Nc3nc(-c4ccc(C)cc4)cs3)nc2C)cc1 [Compound 10n]", 60.139),
    ("Cc1ccc(-c2csc(NC(=O)CSc3nc(C)c(C(=O)/C=C/c4ccc(Cl)cc4)s3)n2)cc1 [Compound 10l]", 60.835),
]

Exam item: Hello, I am looking for reported Tub. enzyme inhibition assay K. Activity with tubulin for Cc1ccc(-c2csc(NC(=O)CSc3nc(C)c(C(=O)/C=C/c4ccc(F)cc4)s3)n2)cc1 [Compound 10m] . Could you help?
Marked response: 50.371

Exam item: Hello, I am looking for reported Tub. enzyme inhibition assay K. Activity with tubulin for Cc1ccc(/C=C/C(=O)c2sc(SCC(=O)Nc3nccs3)nc2C)cc1 [Compound 13d] . Could you help?
Marked response: 37.815

Exam item: Hello, I am looking for reported Tub. enzyme inhibition assay K. Activity with tubulin for Cc1nc(SCC(=O)Nc2nc(-c3ccc(Cl)cc3)cs2)sc1C(=O)/C=C/c1ccc(Cl)cc1 [Compound 10g] . Could you help?
Marked response: 81.206

Exam item: Hello, I am looking for reported Tub. enzyme inhibition assay K. Activity with tubulin for Cc1ccc(/C=C/C(=O)c2sc(SCC(=O)Nc3nc(-c4ccc(Cl)cc4)cs3)nc2C)cc1 [Compound 10i] . Could you help?
Marked response: 70.409

Exam item: Hello, I am looking for reported Tub. enzyme inhibition assay K. Activity with tubulin for Cc1ccc(-c2csc(NC(=O)CSc3nc(C)c(C(=O)/C=C/c4ccccc4)s3)n2)cc1 [Compound 10k] . Could you help?
Marked response: 76.175

* * *

Test system: breast - MCF-7
assayDetails: Antiproliferative assay (MTT) MCF-7
conditionNotes: MCF-7, 100 µM
measure: Average of Relative viability of cells (%)
// return numeric value only (unit: %, not printed)

Exam item: If you can, please state the reported Average of Relative viability of cells (%) value of Cc1nc(SCC(=O)Nc2nccs2)sc1C(=O)/C=C/c1ccc(F)cc1 [Compound 13c] .
Marked response: 21.7

Exam item: If you can, please state the reported Average of Relative viability of cells (%) value of Cc1ccc(-c2csc(NC(=O)CSc3nc(C)c(C(=O)/C=C/c4ccc(F)cc4)s3)n2)cc1 [Compound 10m] .
Marked response: 22.3

Exam item: If you can, please state the reported Average of Relative viability of cells (%) value of COc1ccc(/C=C/C(=O)c2sc(SCC(=O)Nc3nc(-c4ccc(C)cc4)cs3)nc2C)cc1 [Compound 10o] .
Marked response: 7.2

Exam item: If you can, please state the reported Average of Relative viability of cells (%) value of Cc1ccc(/C=C/C(=O)c2sc(SCC(=O)Nc3nc(-c4ccccc4)cs3)nc2C)cc1 [Compound 10d] .
Marked response: 8.1

* * *

System: tubulin
assayDetails: Tubulin polymerization inhibition assay (Cytoskeleton kit)
conditionNotes: conc 0.1 (unit not given), control = 120, codes 522-537 run
measure: Tub. enzyme inhibition assay K. Activity

Exam item: Hello, I am looking for reported Tub. enzyme inhibition assay K. Activity with tubulin for Cc1ccc(/C=C/C(=O)c2sc(SCC(=O)Nc3nc(-c4ccc(Cl)cc4)cs3)nc2C)cc1 [Compound 10i] . Could you help?
Marked response: 113.37

Exam item: Hello, I am looking for reported Tub. enzyme inhibition assay K. Activity with tubulin for Cc1ccc(/C=C/C(=O)c2sc(SCC(=O)Nc3nc(-c4ccc(C)cc4)cs3)nc2C)cc1 [Compound 10n] . Could you help?
Marked response: 109.27

Exam item: Hello, I am looking for reported Tub. enzyme inhibition assay K. Activity with tubulin for Cc1nc(SCC(=O)Nc2nc(-c3ccc(Cl)cc3)cs2)sc1C(=O)/C=C/c1ccc(Cl)cc1 [Compound 10g] . Could you help?
Marked response: 113.71

Exam item: Hello, I am looking for reported Tub. enzyme inhibition assay K. Activity with tubulin for Cc1ccc(/C=C/C(=O)c2sc(SCC(=O)Nc3nccs3)nc2C)cc1 [Compound 13d] . Could you help?
Marked response: 94.779

Exam item: Hello, I am looking for reported Tub. enzyme inhibition assay K. Activity with tubulin for Cc1ccc(-c2csc(NC(=O)CSc3nc(C)c(C(=O)/C=C/c4ccc(Cl)cc4)s3)n2)cc1 [Compound 10l] . Could you help?
Marked response: 106.95

Exam item: Hello, I am looking for reported Tub. enzyme inhibition assay K. Activity with tubulin for Cc1ccc(-c2csc(NC(=O)CSc3nc(C)c(C(=O)/C=C/c4ccccc4)s3)n2)cc1 [Compound 10k] . Could you help?
Marked response: 113.89

Exam item: Hello, I am looking for reported Tub. enzyme inhibition assay K. Activity with tubulin for COc1ccc(/C=C/C(=O)c2sc(SCC(=O)Nc3nc(-c4ccccc4)cs3)nc2C)cc1 [Compound 10e] . Could you help?
Marked response: 108.49

Exam item: Hello, I am looking for reported Tub. enzyme inhibition assay K. Activity with tubulin for Cc1ccc(-c2csc(NC(=O)CSc3nc(C)c(C(=O)/C=C/c4ccc(F)cc4)s3)n2)cc1 [Compound 10m] . Could you help?
Marked response: 99.836

Exam item: Hello, I am looking for reported Tub. enzyme inhibition assay K. Activity with tubulin for COc1ccc(/C=C/C(=O)c2sc(SCC(=O)Nc3nc(-c4ccc(Cl)cc4)cs3)nc2C)cc1 [Compound 10j] . Could you help?
Marked response: 111.51

Exam item: Hello, I am looking for reported Tub. enzyme inhibition assay K. Activity with tubulin for Cc1nc(SCC(=O)Nc2nc(-c3ccc(Cl)cc3)cs2)sc1C(=O)/C=C/c1ccccc1 [Compound 10f] . Could you help?
Marked response: 101.33

* * *

System: tubulin
assayDetails: Tubulin polymerization inhibition assay (Cytoskeleton kit);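 also: Cell-free tubulin polymerization read by fluorescent reporter enhancement over a 30 min reaction, with the compound-free kit control taken as 100% activity and inhibition relative to it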
conditionNotes: conc 1 (unit not given), 30 min, codes 522-537 run
Please enter Fulfilled where Tub. enzyme inhibition assay %inhibition is greater than or equal to 30%, and Not fulfilled where it is lower.

Observe how each entry below is paired with its result.
# compound, assignedCategory
data = [
    ("Cc1nc(SCC(=O)Nc2nc(-c3ccc(Cl)cc3)cs2)sc1C(=O)/C=C/c1ccccc1 [Compound 10f]", "Fulfilled"),
    ("Cc1ccc(-c2csc(NC(=O)CSc3nc(C)c(C(=O)/C=C/c4ccccc4)s3)n2)cc1 [Compound 10k]", "Not fulfilled"),
    ("COc1ccc(/C=C/C(=O)c2sc(SCC(=O)Nc3nc(-c4ccc(Cl)cc4)cs3)nc2C)cc1 [Compound 10j]", "Not fulfilled"),
    ("COc1ccc(/C=C/C(=O)c2sc(SCC(=O)Nc3nc(-c4ccccc4)cs3)nc2C)cc1 [Compound 10e]", "Not fulfilled"),
    ("Cc1ccc(/C=C/C(=O)c2sc(SCC(=O)Nc3nc(-c4ccc(C)cc4)cs3)nc2C)cc1 [Compound 10n]", "Not fulfilled"),
    ("Cc1ccc(/C=C/C(=O)c2sc(SCC(=O)Nc3nccs3)nc2C)cc1 [Compound 13d]", "Fulfilled"),
    ("Cc1nc(SCC(=O)Nc2nc(-c3ccc(Cl)cc3)cs2)sc1C(=O)/C=C/c1ccc(Cl)cc1 [Compound 10g]", "Not fulfilled"),
    ("Cc1ccc(/C=C/C(=O)c2sc(SCC(=O)Nc3nc(-c4ccc(Cl)cc4)cs3)nc2C)cc1 [Compound 10i]", "Not fulfilled"),
]

In the following, a different compound is considered.
Exam item: Record Cc1ccc(-c2csc(NC(=O)CSc3nc(C)c(C(=O)/C=C/c4ccc(Cl)cc4)s3)n2)cc1 [Compound 10l] ; criterion: Tub. enzyme inhibition assay %inhibition no lower than 30%. Met?
Marked response: Not fulfilled

Every entry's value here was drawn from paper PMC12040969.
